Quick reference for inhibition of SARS-CoV-2 cytopathic effect among some compounds
- Tested on: Vero E6 infected with SARS-CoV-2
- assayText: inhibition of SARS-CoV-2 cytopathic effect; higher = more antiviral protection, active = above 15
- conditionContext: 10000 nM; 48 h
Counter-ions that a name gives are not always drawn.
Numeric only. Scale: %

>>> recordednumber("CC1CNc2c(cccc2S(=O)(=O)N[C@@H](CCCNC(=N)N)C(=O)N2CC[C@@H](C)C[C@@H]2C(=O)O)C1 (mixture of isomers)")
-0.11
>>> recordednumber("CN[C@@H]1[C@H](O[C@H]2[C@H](O[C@H]3[C@H](O)[C@@H](O)[C@H](N=C(N)N)[C@@H](O)[C@@H]3N=C(N)N)O[C@@H](C)[C@]2(O)C=O)O[C@@H](CO)[C@H](O)[C@H]1O [STREPTOMYCIN SULFATE [5mM; 10% aq DMSO + 5mM ethanolamine]]")
0.2
>>> recordednumber("c1ccc(Cn2c(-c3ccc(OC[C@H](C4CCNCC4)n4c(-c5ccccc5)nc5ccccc54)cc3)nc3ccccc32)cc1")
-33.6
>>> recordednumber("O=C(O)c1c2ccccc2cc2ccccc12")
-2.02
>>> recordednumber("CC[C@]12CCCN3CCc4c(n(c5ccccc45)[C@@](O)(C(=O)OC)C1)[C@@H]32")
-1.71
>>> recordednumber("O=C(c1ccc2nccnc2c1)N1CCCCC1")
0.77
>>> recordednumber("CCCCC[C@H](O)/C=C/[C@H]1[C@H](O)CC(=O)[C@@H]1CCCCCCC(=O)O")
0.55
>>> recordednumber("CN(C)CCOC(c1ccc(Cl)cc1)c1ccccn1 (centres undefined)")
-1.45
>>> recordednumber("c1coc(-c2nnc3sc(C4CCCCC4)nn23)c1")
-1.68
>>> recordednumber("CN1Cc2c(N)cccc2C(c2ccccc2)C1 (centres undefined)")
0.73

Query: inhibition of SARS-CoV-2 cytopathic effect; subject: CC(C)(C)NC(=O)N[C@H](C(=O)N1C[C@H]2[C@@H]([C@H]1C(=O)NC(CC1CCC1)C(=O)C(N)=O)C2(C)C)C(C)(C)C (some centres undefined) -0.53

Same thing, different compound: CC[C@H]1OC(=O)C[C@@H](O)[C@H](C)[C@@H](O[C@@H]2O[C@H](C)[C@@H](O[C@H]3C[C@@](C)(O)[C@@H](O)[C@H](C)O3)[C@H](N(C)C)[C@H]2O)[C@@H](CC=O)C[C@@H](C)C(=O)/C=C/C(C)=C/[C@@H]1CO[C@@H]1O[C@H](C)[C@@H](O)[C@@H](OC)[C@H]1OC 4.02

Okay, and C[C@]12CC[C@H]3[C@@H](CC[C@@]45O[C@@H]4C(O)=C(C#N)C[C@]35C)[C@@H]1CC[C@@H]2O ? 2.15

Another compound: CCCn1c(=O)[nH]c2nc(-c3ccc(S(=O)(=O)O)cc3)[nH]c2c1=O 0.55
